assay-notes: gradient 5% acetonitrile 3 min, to 50% in 2 min, to 85% in 15 min, held 3 min, 100 µL/min
condition-info: column: Zorbax Extend-C18 2.1 x 50 mm; eluents: water / acetonitrile, 0.1% formic acid
In this section, each of the molecules is paired with its reported RP-LC retention time.

molecule: CCN(CC)C(=O)c1ccc2nc(-c3ccc(Cl)cc3)cn2c1
RP-LC retention time [s]: 681
//
molecule: Cc1cccc(NC(=O)CCCCC(=O)O)n1
RP-LC retention time [s]: 528
//
molecule: CCC(C)NC(=O)N1CC(Oc2ccc(-c3noc(COC)n3)cc2)C1 (stereo not given)
RP-LC retention time [s]: 794
//
molecule: O=C(NCc1cccs1)C1CCCN(C(=O)c2cc(-c3ccncc3)n[nH]2)C1 (stereo not given)
RP-LC retention time [s]: 574
//
molecule: COCc1nc2cccnc2n1C1CCN(C(=O)Nc2cccc(Br)c2)CC1
RP-LC retention time [s]: 768
//
molecule: Cc1nc2cc(-c3noc(Cc4cccc(C(F)(F)F)c4)n3)ccc2o1
RP-LC retention time [s]: 1080
//
molecule: O=C(c1ccc(F)c(Cl)c1)N1CCc2nc[nH]c2C1
RP-LC retention time [s]: 592
//
molecule: Cc1sc2ncnc(N3CCCC(C)C3)c2c1C(=O)Nc1ccc(C(F)(F)F)cc1 (stereo not given)
RP-LC retention time [s]: 1340
//
molecule: O=C(CSc1nnc2c(=O)n(-c3ccccc3)ccn12)c1ccc(Br)cc1
RP-LC retention time [s]: 881
//
molecule: O=C(Nc1ccc(Oc2ccc(NC(=O)Nc3ccccc3Cl)cc2)cc1)Nc1ccccc1Cl
RP-LC retention time [s]: 1250
//
molecule: Cc1ccccc1CNS(=O)(=O)c1c[nH]c2ncccc12
RP-LC retention time [s]: 730
//
molecule: CCn1cnc(S(=O)(=O)N2CCC(C(=O)Nc3ccccc3)CC2)c1
RP-LC retention time [s]: 701
//
molecule: CCc1nc(-c2csc(S(=O)(=O)N3CCC(C(=O)N4CCc5ccccc54)CC3)c2)no1
RP-LC retention time [s]: 1050
//
molecule: O=C(CCn1nnc2cc(-c3noc(COc4ccccc4)n3)ccc21)N1CCCCCC1
RP-LC retention time [s]: 1000
//
molecule: O=C(CSc1nc2ccc([N+](=O)[O-])cc2s1)c1ccc(F)cc1
RP-LC retention time [s]: 1030
